Provide the reported Kd of each item.
Molecular target: T1, mtDsbC-SARS-CoV-2 RBD wild type fusion protein (SARS-CoV-2, wild type (Wuhan-Hu-1), UniProt P0DTC2, biotin (EZ-Link NHS-PEG4-Biotin))
T1 construct: also called RBD SARS-CoV-2 (wild type); mtDsbC-RBD; not shown: mtDsbC solubility tag, N-terminal, kept
Assay: BLI; biotinylated mtDsbC-RBD (20 µg/mL) immobilised on streptavidin (SA) biosensors, Fabs as analytes at three nanomolar concentrations; Octet RED384, 30 °C, 1000 rpm, 1 × PBS Kinetics Buffer; 1:1 interaction model, global fit
Conditions: both partners purified
Give bare numbers, in nM.

# annotated cases, reported Kd shown
| binder | scale unit | Kd |
| --- | --- | --- |
| REGN10933 (N93Q) Fab (Fab, V domains shown) VH: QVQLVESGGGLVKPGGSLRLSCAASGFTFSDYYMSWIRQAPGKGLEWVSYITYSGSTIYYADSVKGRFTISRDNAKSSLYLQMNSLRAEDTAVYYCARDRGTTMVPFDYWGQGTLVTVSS VL: DIQMTQSPSSLSASVGDRVTITCQASQDITNYLNWYQQKPGKAPKLLIYAASNLETGVPSRFSGSGSGTDFTFTISGLQPEDIATYYCQQYDQLPLTFGGGTKVEIK | nM | 2.76 |
| REGN10933 (M104N) Fab (Fab, V domains shown) VH: QVQLVESGGGLVKPGGSLRLSCAASGFTFSDYYMSWIRQAPGKGLEWVSYITYSGSTIYYADSVKGRFTISRDNAKSSLYLQMNSLRAEDTAVYYCARDRGTTNVPFDYWGQGTLVTVSS VL: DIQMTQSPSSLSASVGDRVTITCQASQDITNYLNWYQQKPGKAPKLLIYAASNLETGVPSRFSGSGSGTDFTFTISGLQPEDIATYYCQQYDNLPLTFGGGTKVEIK | nM | 143 |
| REGN10987 (Imdevimab) Fab wild type (Fab, V domains shown, Fab heavy chain of REGN10987; Fab light chain of REGN10987; Polycistronic gene, light chain upstream of heavy chain; also called REGN10987 wild type; REGN10987 Fab) VH: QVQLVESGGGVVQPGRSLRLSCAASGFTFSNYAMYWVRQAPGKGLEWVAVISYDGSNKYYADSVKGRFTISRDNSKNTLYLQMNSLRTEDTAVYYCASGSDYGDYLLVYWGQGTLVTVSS VL: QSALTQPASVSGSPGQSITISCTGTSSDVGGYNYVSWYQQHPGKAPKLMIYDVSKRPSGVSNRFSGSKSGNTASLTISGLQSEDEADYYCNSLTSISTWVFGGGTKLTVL | nM | 43.9 |

Entry REGN10933 (A75S) Fab (Fab, V domains shown) VH: QVQLVESGGGLVKPGGSLRLSCAASGFTFSDYYMSWIRQAPGKGLEWVSYITYSGSTIYYADSVKGRFTISRDNSKSSLYLQMNSLRAEDTAVYYCARDRGTTMVPFDYWGQGTLVTVSS VL: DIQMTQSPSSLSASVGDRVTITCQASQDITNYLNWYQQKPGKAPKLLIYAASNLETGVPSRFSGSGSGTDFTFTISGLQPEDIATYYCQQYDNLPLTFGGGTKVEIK needs its Kd filled in; supply it.
3.22

// data source = paper PMC10019796
